Test system: MDA-MB-468 breast
measurement_notes: NCI tumour cell line growth inhibition, 48 h; in the data active = GI50 below about 0.43 µM; inactive = the rest
Give your call using only these classes: 1 = active, 0 = inactive

Asked: Lab log entry: "CN(C)c1ccc(/C=C/c2ccnc3c(O)cccc23)cc1" — outcome as called in the assay?
Given back: 0

Asked: Lab log entry: "CC[C@H](NC(=O)[C@H]1CCCCN1C)C(=O)N(C)[C@H](C[C@@H](OC(C)=O)c1nc(C(=O)N[C@@H](Cc2ccccc2)C[C@H](C)C(=O)O)cs1)C(C)C" — outcome as called in the assay?
Given back: 1

Asked: Lab log entry: "CCN(CC)c1ccc(NC2=C(Cl)C(=O)c3nc(C)ccc3C2=O)cc1" — outcome as called in the assay?
Given back: 0

Asked: Lab log entry: CC[C@H]1CN2CCc3cc(OC)c(OC)cc3C2C[C@@H]1CC1NCCc2cc(OC)c(OC)cc21 (some centres undefined) — outcome as called in the assay?
Given back: 1

Asked: Lab log entry: "N#Cc1c(NC(=O)NCc2ccccc2)sc2c1CCCC2" — outcome as called in the assay?
Given back: 1

Asked: Lab log entry: "COc1cc2c(c(OC)c1OC)-c1ccc(OC)c(=O)cc1[C@@H](N)CC2" — outcome as called in the assay?
Given back: 1

Asked: Lab log entry: "Cc1cc(Cl)cc2c(N=Nc3ccc(S(N)(=O)=O)cc3)c(O)[nH]c12" — outcome as called in the assay?
Given back: 0

Asked: Lab log entry: "Nc1c(C(=O)c2ccc(-c3cccnc3)cc2)cnn1-c1ccc(F)cc1" — outcome as called in the assay?
Given back: 0

Asked: Lab log entry: "Cc1cc(Nc2ccc(OCc3ccccc3)cc2)nc2cc(O)ccc12" — outcome as called in the assay?
Given back: 0

###

Test system: MDA-MB-468 breast
measurement_notes: NCI tumour cell line growth inhibition, 48 h
Could you please report measured GI50 for the items listed next?

Asked: Record lookup: for MDA-MB-468 breast, what GI50 belongs to "C[C@]12CC[C@@H]3c4cc(OC(F)F)c(O)cc4CC[C@H]3[C@@H]1CC[C@@H]2OS(N)(=O)=O" ?
Given back: 504 nM

Asked: Record lookup: for MDA-MB-468 breast, what GI50 belongs to "O=C(COc1ccc(/C=C2\COc3ccccc3C2=O)cc1)Nc1nccs1" ?
Given back: 2040 nM

Asked: Record lookup: for MDA-MB-468 breast, what GI50 belongs to "CC1(C)N=C(N)N=C(N)N1c1ccc(CCCCc2ccccc2)c(Cl)c1" ?
Given back: 19.6 nM

Asked: Record lookup: for MDA-MB-468 breast, what GI50 belongs to "O=C1CC[C@H](N2C(=O)c3cccc4c(Cc5ccc(CN6CCOCC6)cc5)ccc2c34)C(=O)N1" ?
Given back: 2730 nM

Asked: Record lookup: for MDA-MB-468 breast, what GI50 belongs to "NC1=CC(=O)c2cccnc2C1=O" ?
Given back: 1350 nM

Asked: Record lookup: for MDA-MB-468 breast, what GI50 belongs to "Oc1ccc(CSc2nnc(-c3ccncc3)o2)c2cccnc12" ?
Given back: 2270 nM

Asked: Record lookup: for MDA-MB-468 breast, what GI50 belongs to "CCN(CC)CCNc1ccc(C)c2sc3cc(Cl)ccc3c(=O)c12" ?
Given back: 2070 nM

Asked: Record lookup: for MDA-MB-468 breast, what GI50 belongs to "COC(=O)[C@@H](C)C[C@H](Cc1cn(C)c2ccccc12)NC(=O)c1csc([C@@H](C[C@H](C(C)C)N(C)C(=O)[C@@H](NC(=O)[C@H]2CCCCN2C)C(C)C)OC(C)=O)n1" ?
Given back: 5.85 nM

Asked: Record lookup: for MDA-MB-468 breast, what GI50 belongs to NS(=O)(=O)OCC1OC(n2cnc3cncnc32)C(O)C1O (stereo unspecified) ?
Given back: 18.9 nM

Asked: Record lookup: for MDA-MB-468 breast, what GI50 belongs to "Cc1ccc(Cl)cc1Nc1nc(C(F)(F)F)ccc1C(=O)N/N=C/c1cccnc1" ?
Given back: 1410 nM

Asked: Record lookup: for MDA-MB-468 breast, what GI50 belongs to "COc1ccc(/C=C(/C(=O)N2CCN(c3ccccc3)CC2)c2cc(OC)c(OC)c(OC)c2)cc1N" ?
Given back: 251 nM

###

Test system: MDA-MB-468 breast
measurement_notes: NCI tumour cell line growth inhibition, 48 h
Could you please report measured TGI for the items listed next?

Asked: So what does the record say about TGI for "N#Cc1c(NC(=O)NCc2ccccc2)sc2c1CCCC2" ?
Given back: 11.3 µM

Asked: So what does the record say about TGI for "Cc1ccc(Cl)cc1Nc1nc(C(F)(F)F)ccc1C(=O)N/N=C/c1cccnc1" ?
Given back: 10.2 µM

Asked: So what does the record say about TGI for "Cc1cccc(-c2[nH]ncc2-c2ccc3ncccc3n2)n1" ?
Given back: > 16.5 µM

Asked: So what does the record say about TGI for CCOC(=O)C1=C(C)N=c2s/c(=C\c3ccccc3O)c(=O)n2C1c1ccc(OC)c2ccccc12 (centres undefined) ?
Given back: 21.2 µM

###

System: MDA-MB-468 breast
measurement_notes: NCI tumour cell line growth inhibition, 48 h
assay_readout: TGI

Asked: So what does the record say about TGI for CC(C)(C)N1CCC1CN (stereo unspecified) ?
Given back: > 100 µM

Asked: So what does the record say about TGI for "Cc1cc(Cl)cc2c(N=Nc3ccc(S(N)(=O)=O)cc3)c(O)[nH]c12" ?
Given back: > 25 µM

Asked: So what does the record say about TGI for "Cn1cc(C2=C(c3ccccc3[N+](=O)[O-])C(=O)NC2=O)c2ccccc21" ?
Given back: 10.5 µM

Asked: So what does the record say about TGI for NS(=O)(=O)OCC1OC(n2cnc3cncnc32)C(O)C1O (stereo unspecified) ?
Given back: 0.0485 µM

Asked: So what does the record say about TGI for "C[C@]12CC[C@@H]3c4cc(OC(F)F)c(O)cc4CC[C@H]3[C@@H]1CC[C@@H]2OS(N)(=O)=O" ?
Given back: 30.4 µM

Asked: So what does the record say about TGI for "COc1ccc(/C=C(/C(=O)N2CCN(c3ccccc3)CC2)c2cc(OC)c(OC)c(OC)c2)cc1N" ?
Given back: > 100 µM

###

Test system: MDA-MB-468 breast
measurement_notes: NCI tumour cell line growth inhibition, 48 h
Could you please report measured TGI for the items listed next?
Dear colleague, please return just the value in µM, with no unit written.

Asked: So what does the record say about TGI for "Cc1ccc(NC(=O)c2ccc(CN3CCN(C)CC3)cc2)cc1Nc1nccc(-c2cccnc2)n1" ?
Given back: 36.2

Asked: So what does the record say about TGI for COc1cccc(CCC2CCCN(c3cc(C)nc(N)n3)C2)c1 (stereo not given) ?
Given back: 0.952

Asked: So what does the record say about TGI for "O=C1/C(=C\c2ccc(F)cc2)CN(C(=O)c2ccccc2)C/C1=C\c1ccc(F)cc1" ?
Given back: 3.71
